- System: UniProt Q7K237
- Sequence (Q7K237 43-388): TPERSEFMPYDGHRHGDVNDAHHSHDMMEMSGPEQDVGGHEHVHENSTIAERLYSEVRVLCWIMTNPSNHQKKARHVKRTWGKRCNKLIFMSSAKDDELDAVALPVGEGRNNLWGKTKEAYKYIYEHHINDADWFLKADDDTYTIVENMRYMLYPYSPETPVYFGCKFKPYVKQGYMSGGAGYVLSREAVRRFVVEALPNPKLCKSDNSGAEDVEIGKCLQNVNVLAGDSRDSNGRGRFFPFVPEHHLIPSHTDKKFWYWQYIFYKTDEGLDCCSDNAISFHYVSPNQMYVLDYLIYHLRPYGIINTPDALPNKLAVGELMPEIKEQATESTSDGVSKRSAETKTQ
- Experiment: Isothermal titration calorimetry (ITC)
- Assay type: binding
- Parameters: made in house
Readout type: pKd
Please note pKd is a logarithmic value: minus log10 of concentration in mol/L. Answer with that number alone.

Lookup: What value of pKd has been recorded for this entry: O=c1ccn([C@@H]2O[C@H](COP(=O)(O)OP(=O)(O)O)[C@@H](O)[C@H]2O)c(=O)[nH]1 [UDP]
Found: 4.74
